Biological target: EmrE (Escherichia coli, UniProt P23895)
Sequence (P23895 whole entry): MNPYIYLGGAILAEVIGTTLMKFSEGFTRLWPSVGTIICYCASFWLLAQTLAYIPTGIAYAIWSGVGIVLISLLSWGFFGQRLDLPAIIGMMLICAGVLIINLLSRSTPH
Experiment: biochemical
measurementLabel: Kd

Reported Kd of c1ccc([P+](c2ccccc2)(c2ccccc2)c2ccccc2)cc1 [TPP^+] : 120 nM
